Recorded measurements of GI50, one per entry
Tested on: HCC-2998 colon
method notes: NCI tumour cell line growth inhibition, 48 h

> print(dat)
                                   compound  endpoint.label  readout.value
1  C/C1=C/C(=O)O[C@@H]2C[C@@H](CC[C@H](C)/C=C\C=C\CC1)O[C@@](OCCc1ccccc1)([C@@H]1CSC(=O)N1)C2            GI50        6000 nM
2                  CCCCCCC#CC#Cc1cccc(=O)o1            GI50        2520 nM
3   COc1ccc2c(c1)cn1c3ccc(O)cc3[nH]c(=O)c21            GI50         667 nM
4  CC(=O)[C-](C(C)=O)c1ccccc1.CC(=O)[C-](C(C)=O)c1ccccc1.CC[O-].CC[O-].[Ti+4]            GI50    > 100000 nM
5  C=CCC(N[C@H](CO)c1ccccc1)c1cn(S(=O)(=O)c2ccc(C)cc2)c2ccccc12 (stereo not given in full)            GI50       15800 nM
6  COc1cc(C2=NN(c3ccc(S(N)(=O)=O)cc3)C(c3ccc(Cl)cc3)C2)cc(OC)c1OC (stereo not given)            GI50        6930 nM
7  Cc1ccc2c(c1)O/C(=C\c1ccc([N+](=O)[O-])o1)C2=O            GI50        2050 nM
8  O=C(Nc1ccccc1O)c1ccc(CNC(=O)c2sccc2Nc2ccnc(C(F)(F)F)c2)cc1            GI50       10100 nM
9  c1cc[c]([Sn]([S]c2cccc3cccnc23)([S]c2cccc3cccnc23)[c]2ccccc2)cc1            GI50         170 nM

Input: # return recorded GI50 for entry O=C(O)c1cc(Cc2ccc(O)c(C(=O)O)c2)ccc1O (tested in a mixture with another compound)
Output: 1900 nM
